- MEASURED TARGET: human F508del-CFTR (Homo sapiens, UniProt P13569, DEL508-508)
- Sequence (P13569 with tags, fused parts or gaps DEL508-508): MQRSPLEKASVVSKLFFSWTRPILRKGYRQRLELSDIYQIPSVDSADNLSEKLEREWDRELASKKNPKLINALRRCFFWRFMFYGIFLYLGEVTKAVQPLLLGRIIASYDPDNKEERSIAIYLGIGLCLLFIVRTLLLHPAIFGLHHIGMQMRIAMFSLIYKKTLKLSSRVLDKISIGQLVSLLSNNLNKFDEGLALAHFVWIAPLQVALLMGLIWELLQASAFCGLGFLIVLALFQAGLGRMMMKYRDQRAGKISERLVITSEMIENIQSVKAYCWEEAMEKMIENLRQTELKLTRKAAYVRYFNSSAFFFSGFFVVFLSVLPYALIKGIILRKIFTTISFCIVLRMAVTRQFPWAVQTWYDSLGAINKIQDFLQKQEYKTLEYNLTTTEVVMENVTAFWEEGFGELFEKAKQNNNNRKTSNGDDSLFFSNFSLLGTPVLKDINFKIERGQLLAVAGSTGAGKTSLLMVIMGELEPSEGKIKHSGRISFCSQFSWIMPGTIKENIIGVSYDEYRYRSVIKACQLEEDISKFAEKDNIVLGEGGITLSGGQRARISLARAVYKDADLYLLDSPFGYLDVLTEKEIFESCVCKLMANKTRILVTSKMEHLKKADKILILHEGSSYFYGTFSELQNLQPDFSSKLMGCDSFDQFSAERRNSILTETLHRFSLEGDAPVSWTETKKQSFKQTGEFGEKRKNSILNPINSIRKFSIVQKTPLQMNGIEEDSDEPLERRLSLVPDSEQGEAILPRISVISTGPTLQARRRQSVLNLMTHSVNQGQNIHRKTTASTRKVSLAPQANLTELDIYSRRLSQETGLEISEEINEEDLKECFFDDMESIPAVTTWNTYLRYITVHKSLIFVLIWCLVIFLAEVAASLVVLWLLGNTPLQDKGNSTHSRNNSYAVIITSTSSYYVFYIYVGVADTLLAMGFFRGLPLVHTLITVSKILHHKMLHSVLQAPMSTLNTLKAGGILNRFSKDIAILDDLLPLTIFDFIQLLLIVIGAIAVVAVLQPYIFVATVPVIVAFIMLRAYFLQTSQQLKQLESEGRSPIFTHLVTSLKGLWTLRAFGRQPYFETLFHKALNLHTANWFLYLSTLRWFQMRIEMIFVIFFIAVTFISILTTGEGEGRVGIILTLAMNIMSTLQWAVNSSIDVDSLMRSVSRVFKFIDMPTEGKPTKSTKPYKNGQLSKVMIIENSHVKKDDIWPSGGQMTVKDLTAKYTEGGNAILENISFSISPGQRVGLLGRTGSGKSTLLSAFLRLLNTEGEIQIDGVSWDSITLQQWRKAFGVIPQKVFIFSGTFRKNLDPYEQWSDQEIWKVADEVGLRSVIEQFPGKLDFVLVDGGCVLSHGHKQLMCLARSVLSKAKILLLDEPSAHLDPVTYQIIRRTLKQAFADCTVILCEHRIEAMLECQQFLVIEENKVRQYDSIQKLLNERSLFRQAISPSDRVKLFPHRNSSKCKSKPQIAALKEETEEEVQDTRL
- PROTOCOL: F508del-CFTR cell surface expression (corrector activity), DiscoveRx ß-galactosidase complementation chemiluminescence assay in recombinant U2OS cell line;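 also: U2OS cells co-expressing ProLink-tagged F508del-CFTR and a membrane-anchored enzyme acceptor, where more surface CFTR restores β-galactosidase activity measured by chemiluminescence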
- ASSAY CONTEXT: EC50, recombinant U2OS cell line (DiscoveRx) expressing PK-tagged human F508del-CFTR; 16h compound incubation; same conditions as example compounds
READOUT: EC50

Name the recorded EC50 of the molecule listed here: CCC(=O)CCCCC[C@@H]1NC(=O)[C@H]2CCCCN2C(=O)[C@H]([C@@H](C)CC)NC(=O)[C@H](Cc2cn(OC)c3ccccc23)NC1=O [Apicidin, reference compound] > 20 µM
